Provide the reported GI50 of each item.
System: CAKI-1 renal
measurementProtocol: NCI tumour cell line growth inhibition, 48 h

Report GI50 from CAKI-1 renal testing of CCN(CC)Cc1cc(Nc2nc(NC3CCC(N(C)C)CC3)c3ccccc3n2)ccc1OC (centres undefined)
30900 nM

Report GI50 from CAKI-1 renal testing of O=C(OCc1ccc2c(Br)cc(Br)c(O)c2n1)c1cc2ccccc2[nH]1
505 nM

Report GI50 from CAKI-1 renal testing of COc1ccc2c(c1)C(=O)c1c-2c(Nc2ccccc2OC)nc2ccccc12
> 100000 nM

Report GI50 from CAKI-1 renal testing of O=C1/C(=C/c2ccc(Cl)c(Cl)c2)CN(C(=O)CCN2CCC(=NO)CC2)C/C1=C\c1ccc(Cl)c(Cl)c1
584 nM

Report GI50 from CAKI-1 renal testing of COc1ccc2c(N)ncc(C#Cc3cc(C(=O)Nc4ccc(CN5CCN(C)CC5)c(C(F)(F)F)c4)cnc3C)c2c1
1360 nM

Report GI50 from CAKI-1 renal testing of CC(C)(CO)CNC(=O)c1ccc2[nH]c(O)c(N=Nc3ccc(S(N)(=O)=O)cc3)c2c1
> 25000 nM

Report GI50 from CAKI-1 renal testing of N#Cc1nc2c(S(=O)(=O)c3ccc(Cl)cc3)c(N)n(Nc3cccc(Cl)c3)c2nc1C#N
31.1 nM

Report GI50 from CAKI-1 renal testing of CN(C)CCCC1(c2ccc(F)cc2)OCc2cc(-c3cccc4[nH]ccc34)ccc21 (centres undefined)
1410 nM

Report GI50 from CAKI-1 renal testing of Nc1nc2c(c3cnccc13)C(c1ccc(Cl)c(Cl)c1)Cc1cnccc1-2 (centres undefined)
658 nM

Report GI50 from CAKI-1 renal testing of O=C1c2cccc(Oc3ccccc3)c2C(=O)c2cccc(Oc3ccccc3)c21
> 100000 nM

Report GI50 from CAKI-1 renal testing of CC(=O)ON1CCCC(P(=O)(OCOC(=O)C(C)(C)C)OCOC(=O)C(C)(C)C)C1=O (centres undefined)
712 nM

Report GI50 from CAKI-1 renal testing of COc1ccc(C(=O)c2cc(OC)c(OC)c(OC)c2OC)cc1O
2210 nM

Report GI50 from CAKI-1 renal testing of Cc1c(C(=N)C(C#N)C#N)c(=N)oc2c1ccc1ccccc12
7510 nM

Report GI50 from CAKI-1 renal testing of CCCCCOc1ccc(/C=N/Nc2cc(C)nc3ccc(Cl)cc23)cc1
1640 nM

Report GI50 from CAKI-1 renal testing of OC1(c2ccc(Cl)c(C(F)(F)F)c2)CCN(CCCC(c2ccc(F)cc2)c2ccc(F)cc2)CC1
922 nM

Report GI50 from CAKI-1 renal testing of COc1cc2c(N3CCN(C(=O)Nc4ccc(OC(C)C)cc4)CC3)ncnc2cc1OCCCN1CCCCC1
17400 nM

Report GI50 from CAKI-1 renal testing of CC1(C)OC[C@@H]([C@@]2(CO[Si](c3ccccc3)(c3ccccc3)C(C)(C)C)CC=CC(=O)O2)O1
25900 nM

Report GI50 from CAKI-1 renal testing of CCN1C(=S)N(CC)C2C1NC(=S)N2/N=C/C=C/c1ccccc1OC (centres undefined)
101 nM

Report GI50 from CAKI-1 renal testing of COc1cc(CNc2nc3cc(N)cc(N)c3nc2-c2ccccc2)cc(OC)c1
16000 nM

Each recorded value in this set is attributed to PubChem BioAssay (NCI).
